Read-out: Thrombomodulin, THBD (gene 7056)
Experiment: BSK_3C_Thrombomodulin: BioMAP Diversity Plus: 3C Assay for Thrombomodulin Biomarker Activity (AID 2283029)
Conditions: primary human endothelial cells (HUVEC); actives raise or lower the signal
Activity calls are given as the source filed them. The calls were made as follows: active = hit-call score of the fitted dose curve at least 0.9, where 1 is the maximum; inactive = score below 0.9.
Hi there, use one of these labels in your reply, thanks! y for active, n for inactive

                                   compound  labelclass
0  O=C(O)c1cc(Oc2ccc(C(F)(F)F)cc2Cl)ccc1[N+](=O)[O-]           n
1                                 S=C1NCCN1           n
2  CON=C(C(=O)OC)c1ccccc1CON=C(C)c1cccc(C(F)(F)F)c1           y
3  CC(COc1ccc(Oc2ccccc2)cc1)Oc1ccccn1 (centres undefined)           n
4                           C[N+]1(C)CCCCC1           n
5                 CSc1nnc(C(C)(C)C)c(=O)n1N           n
6  C=C(C)[C@H]1Cc2c(ccc3c2O[C@@H]2COc4cc(OC)c(OC)cc4[C@@H]2C3=O)O1           n
7  CCOC(=O)COc1cc(-c2nn(C)c(OC(F)F)c2Cl)c(F)cc1Cl           n

So what was the verdict on C#CC(C)(C)NC(=O)c1cc(Cl)cc(Cl)c1 in this test? n

---

Read-out: Interleukin 6 (IL6), IL6 (gene 3569)
Assay: LTEA_HepaRG_IL6: Life Technologies and Expression Analysis (LTEA) Assay for Interleukin 6 (IL6) using HepaRG (AID 2283509)
Conditions: mRNA level, 48 h; actives raise or lower the signal
Activity calls are given as the source filed them. The calls were made as follows: active = hit-call score of the fitted dose curve at least 0.9, where 1 is the maximum; inactive = score below 0.9.
Hi there, use one of these labels in your reply, thanks! T = active, F = inactive

Examples from the recorded data:
molecule	labelClass
Cc1cc(C2CC2)nc(Nc2ccccc2)n1	F
CC(C1CC1)C(O)(Cn1cncn1)c1ccc(Cl)cc1 (stereo not given)	F

So what was the verdict on CNC(=O)ON=C(SC)C(=O)N(C)C in this test? F

So what was the verdict on CC(C)=CC1C(C(=O)OCN2C(=O)C3=C(CCCC3)C2=O)C1(C)C (stereo not given) in this test? F

So what was the verdict on CC(=NC#N)N(C)Cc1ccc(Cl)nc1 in this test? F

So what was the verdict on CCC(CC)Nc1c([N+](=O)[O-])cc(C)c(C)c1[N+](=O)[O-] in this test? F

So what was the verdict on CCOP(=O)(SC(C)CC)N1CCSC1=O (stereo not given) in this test? F

So what was the verdict on CCc1cccc(C)c1N(C(=O)CCl)C(C)COC (stereo not given) in this test? F

So what was the verdict on CNC(=O)ON=C(C)SC in this test? F

So what was the verdict on COP(=O)(NC(C)=O)SC (stereo not given) in this test? F

So what was the verdict on CCOP(=S)(OCC)SCCSCC in this test? F

So what was the verdict on O=c1ccc(=O)[nH][nH]1 in this test? F

So what was the verdict on CON=C(C(=O)OC)c1ccccc1CON=C(C)c1cccc(C(F)(F)F)c1 in this test? F

So what was the verdict on C#CC(C)(C)NC(=O)c1cc(Cl)cc(Cl)c1 in this test? F

So what was the verdict on CCOP(=S)(OCC)Oc1ccc2c(C)c(Cl)c(=O)oc2c1 in this test? F

So what was the verdict on CC[C@H](C)[C@H]1O[C@]2(C=C[C@@H]1C)C[C@@H]1C[C@@H](C/C=C(\C)[C@@H](O[C@H]3C[C@H](OC)[C@@H](O[C@H]4C[C@H](OC)[C@@H](NC)[C@H](C)O4)[C@H](C)O3)[C@@H](C)/C=C/C=C3\CO[C@@H]4[C@H](O)C(C)=C[C@@H](C(=O)O1)[C@]34O)O2 in this test? T

So what was the verdict on Nc1c(Cl)cc([N+](=O)[O-])cc1Cl in this test? F

So what was the verdict on COc1cc(OC)nc(Sc2cccc(Cl)c2C(=O)O)n1 in this test? F

So what was the verdict on CCc1cnc(C2=NC(C)(C(C)C)C(=O)N2)c(C(=O)O)c1 (stereo not given) in this test? F

So what was the verdict on Cc1nn(-c2cc(NS(C)(=O)=O)c(Cl)cc2Cl)c(=O)n1C(F)F in this test? F

So what was the verdict on CC(C)[C@H](C(=O)O[C@H](C#N)c1cccc(Oc2ccccc2)c1)c1ccc(Cl)cc1 in this test? F

So what was the verdict on CC(Oc1cccc(Cl)c1)C(=O)O (stereo not given) in this test? F

So what was the verdict on CNC(=O)Oc1cccc2c1OC(C)(C)O2 in this test? F

So what was the verdict on CCOP(=S)(OCC)OC(Cl)C(Cl)(Cl)Cl (stereo not given) in this test? F

So what was the verdict on CSc1nnc(C(C)(C)C)c(=O)n1N in this test? F

So what was the verdict on CCCCSP(=O)(SCCCC)SCCCC in this test? F

So what was the verdict on CSC1=N[C@@](C)(c2ccccc2)C(=O)N1Nc1ccccc1 in this test? T

---

Read-out: Nuclear factor erythroid 2-related factor 2 (Homo sapiens)
Assay: LTEA_HepaRG_NFE2L2: Life Technologies and Expression Analysis (LTEA) Assay for Nuclear factor erythroid 2-related factor 2 (NFE2L2) Transcription Factor using HepaRG (AID 2283527)
Settings: mRNA level, 48 h; actives raise or lower the signal
Active and inactive are the calls of the source. The calls were made as follows: active = hit-call score of the fitted dose curve at least 0.9, where 1 is the maximum; inactive = score below 0.9.
Hi there, use one of these labels in your reply, thanks! active, inactive

                                   compound  labelclass
0  CC(Oc1cccc(Cl)c1)C(=O)O (configuration not stated)    inactive
1  CC(COc1ccc(Oc2ccccc2)cc1)Oc1ccccn1 (configuration not stated)    inactive
2  FC(F)C(F)(F)OCC(Cn1cncn1)c1ccc(Cl)cc1Cl (configuration not stated)      active
3        CC1(C(=O)Nc2ccc(O)c(Cl)c2Cl)CCCCC1    inactive
4  CCCCN(CC)c1c([N+](=O)[O-])cc(C(F)(F)F)cc1[N+](=O)[O-]    inactive

API: the following record is the query input.
So what was the verdict on COP(=O)(OC)SCn1c(=O)oc2cc(Cl)cnc21 in this test? inactive

---

Molecular target: Aryl hydrocarbon receptor (Homo sapiens)
Assay: ATG_Ahr_CIS: Attagene CIS-FACTORIAL HepG2 Assay for human Aryl Hydrocarbon Receptor (Ahr) (AID 2282930)
Settings: HepG2 AhR cis-factorial reporter transcription; actives raise or lower the signal
Activity calls are given as the source filed them. The calls were made as follows: active = hit-call score of the fitted dose curve at least 0.9, where 1 is the maximum; inactive = score below 0.9.
Hi there, use one of these labels in your reply, thanks! 1 = active, -1 = inactive

compound	labelClass
CC(COc1ccc(Oc2ccccc2)cc1)Oc1ccccn1 (centres undefined)	-1
CCCSP(=O)(OCC)SCCC	-1
CC(C)[C@H](C(=O)O[C@H](C#N)c1cccc(Oc2ccccc2)c1)c1ccc(Cl)cc1	-1

So what was the verdict on CC(Oc1cccc(Cl)c1)C(=O)O (centres undefined) in this test? -1

So what was the verdict on C=C(C)[C@H]1Cc2c(ccc3c2O[C@@H]2COc4cc(OC)c(OC)cc4[C@@H]2C3=O)O1 in this test? -1

So what was the verdict on Cc1nn(-c2cc(NS(C)(=O)=O)c(Cl)cc2Cl)c(=O)n1C(F)F in this test? -1

So what was the verdict on N#CSCSC#N in this test? -1

So what was the verdict on CCCCN(CC)c1c([N+](=O)[O-])cc(C(F)(F)F)cc1[N+](=O)[O-] in this test? -1

So what was the verdict on CCCOCC(=Nc1ccc(Cl)cc1C(F)(F)F)n1ccnc1 in this test? -1

---

Read-out: Interleukin-1 alpha (IL1a), IL1A (gene 3552)
Assay: BSK_LPS_IL1a: BioMAP Diversity Plus: LPS Assay for Interleukin-1 alpha (IL1a) Biomarker Activity (AID 2283080)
Conditions: primary human HUVEC with PBMC; actives raise or lower the signal
Calls of active or inactive are those of the source. The calls were made as follows: active = hit-call score of the fitted dose curve at least 0.9, where 1 is the maximum; inactive = score below 0.9.
Hi there, use one of these labels in your reply, thanks! 1.0 for active, 0.0 for inactive

So what was the verdict on CNC(=O)Oc1cccc2c1OC(C)(C)O2 in this test? 0.0

So what was the verdict on C#CCC1=C(C)C(OC(=O)C2C(C=C(C)C)C2(C)C)CC1=O (configuration not stated) in this test? 1.0

So what was the verdict on Nc1c(Cl)cc([N+](=O)[O-])cc1Cl in this test? 0.0

So what was the verdict on CCOC(=O)CC(SP(=O)(OC)OC)C(=O)OCC (configuration not stated) in this test? 0.0

So what was the verdict on CCOP(=O)(NC(C)C)Oc1ccc(SC)c(C)c1 (configuration not stated) in this test? 0.0

So what was the verdict on C[N+]1(C)CCCCC1 in this test? 0.0

So what was the verdict on C[Si](Cn1cncn1)(c1ccc(F)cc1)c1ccc(F)cc1 in this test? 0.0

So what was the verdict on CC(C)=CC1C(C(=O)OCN2C(=O)C3=C(CCCC3)C2=O)C1(C)C (configuration not stated) in this test? 0.0

So what was the verdict on CCCOCC(=Nc1ccc(Cl)cc1C(F)(F)F)n1ccnc1 in this test? 1.0

So what was the verdict on CC(C)[C@H](C(=O)O[C@H](C#N)c1cccc(Oc2ccccc2)c1)c1ccc(Cl)cc1 in this test? 0.0

So what was the verdict on CCCCSP(=O)(SCCCC)SCCCC in this test? 0.0

So what was the verdict on COc1cc(OC)nc(Sc2cccc(Cl)c2C(=O)O)n1 in this test? 0.0
